systemTested: CDK4/cyclinD(h) (Homo sapiens)
Sequence (P11802 whole entry): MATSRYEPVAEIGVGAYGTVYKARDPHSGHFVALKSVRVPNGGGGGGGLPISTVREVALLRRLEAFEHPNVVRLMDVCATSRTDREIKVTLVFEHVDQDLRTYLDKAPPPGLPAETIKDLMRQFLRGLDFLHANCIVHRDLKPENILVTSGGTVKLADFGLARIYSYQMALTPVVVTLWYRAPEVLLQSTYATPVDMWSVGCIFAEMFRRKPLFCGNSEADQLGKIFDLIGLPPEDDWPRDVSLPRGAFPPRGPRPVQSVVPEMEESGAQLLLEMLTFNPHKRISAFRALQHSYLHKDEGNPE
Sequence (P30281 whole entry partner): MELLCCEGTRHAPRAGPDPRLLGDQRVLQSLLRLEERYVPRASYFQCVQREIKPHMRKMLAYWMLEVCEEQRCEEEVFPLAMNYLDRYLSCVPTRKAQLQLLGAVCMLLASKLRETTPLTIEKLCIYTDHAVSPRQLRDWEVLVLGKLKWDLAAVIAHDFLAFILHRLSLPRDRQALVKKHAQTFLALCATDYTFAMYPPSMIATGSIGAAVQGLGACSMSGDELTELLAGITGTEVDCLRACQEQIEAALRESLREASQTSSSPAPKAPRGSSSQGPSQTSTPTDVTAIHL
testSummary: Kinase inhibition assay (Eurofins KinaseProfiler)
protocolConditions: ATP at Km
Method: Kinase inhibition profiles were determined using KinaseProfiler services provided by Eurofins, and ATP concentrations used are the Km of corresponding kinases. CDK1/cyclinB (h) (CDK2/cyclinA (h), CDK3/cyclinE (h), CDK4/CyclinD(h), CDK5/p25 (h), CDK6/cyclinD3 (h)) were incubated with 8 mM MOPS pH 7.0, 0.2 mM EDTA, 0.1 mg/mL histone H1, 10 mM MgAcetate and [gamma-33P]-ATP (specific activity and concentration as required). All the reactions above were initiated by the addition of the Mg/ATP mix. […]
pIC50: −log10 of the molar value.
measurementName: pIC50

INSERT INTO assay_data (compound, assayvalue) VALUES
  ('CC(C)n1nnc2ccc(-c3nc(Nc4ccc(CNC(=O)C5(C(=O)Nc6ccccc6)CC5)cc4)ncc3F)cc21 [12O]', 6.80);

// data source = paper PMC7664879
